molecular target: human RORγ (Homo sapiens); construct: human, NM_005060.3 and from Ser253 to Lys518; expressed in transfected cells; host or cells: CHO cells (transient co-transfection with pG5-Luc reporter); experiment: Luciferase reporter gene assay of inhibitory effect against RORγ transcriptional activity (GAL4-hRORγ plasmid in CHO cells); assay type: cell-based; conditions: read-out: LUC EC50 (μM) hRORg
Sequence (P51449 253-518): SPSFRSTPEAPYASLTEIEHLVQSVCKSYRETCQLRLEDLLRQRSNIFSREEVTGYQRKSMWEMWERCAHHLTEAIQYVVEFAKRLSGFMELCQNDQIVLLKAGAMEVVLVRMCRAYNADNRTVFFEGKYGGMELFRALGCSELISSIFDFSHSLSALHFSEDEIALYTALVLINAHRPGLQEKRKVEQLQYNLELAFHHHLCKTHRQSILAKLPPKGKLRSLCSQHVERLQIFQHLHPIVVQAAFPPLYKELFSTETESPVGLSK
readout-label: EC50

COc1cc(C)ccc1CNC(=O)[C@H]1CN(C(C)=O)C[C@@H]1c1nnc(CCC2CCCCC2)n1C1CC1 (racemic) ... < 3 µM
Cc1ccc(NC(=O)C[C@H](CCC(=O)O)c2noc(-c3cc(C(C)(C)C)on3)c2C2CC2)c(Cl)c1 ... < 3 µM
CCn1c(CCCC(C)(C)C)nnc1[C@@H]1[C@@H](C(=O)NCc2ccc(C)cc2OC)CCN1C(C)=O ... < 3 µM
Cc1c(Cl)cccc1NC(=O)CCc1nnc(CCN2CCCCC2)n1C1CC1 ... > 3 µM
CC(=O)N1C[C@H](C(=O)Nc2ccc(C)cc2C)[C@@H](c2nnc(C3CN(C(=O)OC(C)(C)C)C3)n2C2CC2)C1 (racemic) ... > 3 µM

Ask | Any idea what its EC50 is? The molecule is Cc1c(Cl)cccc1NC(=O)CCc1nnc(CN2C(=O)c3ccccc3C2=O)n1C1CC1
Reply | > 3 µM

Ask | What value of EC50 has been recorded for this entry: Cc1ccc(NC(=O)C[C@H](CCC(=O)O)c2noc(-c3cc(C4(CC(C)C)CC4)on3)c2C2CC2)c(Cl)c1
Reply | < 3 µM

Ask | Which EC50 is listed for Cc1c(Cl)cccc1NC(=O)CC(CCN1C(=O)c2ccccc2C1=O)c1nnc(CCCC(C)C)n1C1CC1 (racemic) ?
Reply | < 3 µM

Ask | Suppose we examine the molecule Cc1ccc(NC(=O)C(C)C(CCO)c2nnc([C@H]3C[C@@H](CC(C)C)C3)n2C2CC2)c(C)c1 (single isomer, unassigned) [Example F-493] ; what EC50 value has been reported?
Reply | < 3 µM

Ask | Using the record for Cc1ccc(NC(=O)[C@H]2CCC(=O)N(C)[C@@H]2c2nnc(CCCC(C)(C)C)n2C2CC2)c(C)c1 , report its EC50.
Reply | < 3 µM

Ask | Look up EC50: Cc1ccc(NC(=O)C[C@H](CCC(=O)O)c2noc(-c3cc(C(F)(F)C4(C)CC4)on3)c2C2CC2)c(Cl)c1
Reply | < 3 µM

Ask | For the molecule Cc1ccc(C(N)=O)cc1NC(=O)CCc1nnc(CCC(C)C)n1C1CC1 , what EC50 is on record?
Reply | > 3 µM

Ask | Find the recorded EC50 belonging to CCn1c(CCC(=O)Nc2cccc(Cl)c2C)nnc1CCC1CCCCC1 and report it.
Reply | < 3 µM

Ask | Need EC50 of Cc1ccc(NC(=O)C[C@H](CCC(=O)O)c2noc(-c3cnc(CC(C)C)s3)c2C2CC2)c(Cl)c1 , thanks.
Reply | < 3 µM

Ask | Entry Cc1ccc(NC(=O)C[C@@H](CCO)c2nnc(CCCC(C)(C)C)n2CC(F)(F)F)c(C)c1 : reported EC50 = ?
Reply | > 3 µM

Ask | I'd like to know its EC50. The molecule in question is C=CCC(CC(=O)NCc1ccc(C)cc1OC)c1nnc(CCCC(C)C)n1C1CC1 (racemic)
Reply | < 3 µM

Ask | Can you look up the measured EC50 of CC(=O)N1C[C@H](C(=O)Nc2ccc(C)cc2C)[C@@H](c2nnc([C@H]3C[C@@H](CC(C)(C)C)C3)n2C2CC2)C1 for me?
Reply | < 3 µM

Ask | State the recorded EC50 for this entry: CCc1ccccc1CNC(=O)CCc1nnc(CCC(C)C)n1C1CC1
Reply | > 3 µM
